# pEC50 values compiled below
assay: Inhibition of human alphaVbeta3 receptor expressed in african green monkey Vero E6 cells assessed as inhibition of SNV infection in cells by immunofluorescent assay
Value format note: pEC50 is -log10 of concentration (mol/L); just state the number.

[
  {
    "MOLECULE": "O=C(NCc1ccc2c(c1)OCO2)C(Cc1ccccc1)NS(=O)(=O)c1cccc2cccnc12 (racemic)",
    "pEC50": 8.80
  }
]

Reported pEC50 of O=C(NCc1cccs1)C(Cc1ccccc1)NS(=O)(=O)c1ccc2nsnc2c1 (racemic) : 8.60

Reported pEC50 of `O=c1c(C=NCc2ccco2)c(CSc2ccc(Cl)cc2)[nH]n1-c1nc2ccccc2s1` : 8.89
